assay: self-splicing fitness, log relative to wild type (ln ratio); higher = more splicing; Tetrahymena group I intron in knt gene, E. coli kanamycin selection, DiMSum; sequences stand for … in CUCUCU…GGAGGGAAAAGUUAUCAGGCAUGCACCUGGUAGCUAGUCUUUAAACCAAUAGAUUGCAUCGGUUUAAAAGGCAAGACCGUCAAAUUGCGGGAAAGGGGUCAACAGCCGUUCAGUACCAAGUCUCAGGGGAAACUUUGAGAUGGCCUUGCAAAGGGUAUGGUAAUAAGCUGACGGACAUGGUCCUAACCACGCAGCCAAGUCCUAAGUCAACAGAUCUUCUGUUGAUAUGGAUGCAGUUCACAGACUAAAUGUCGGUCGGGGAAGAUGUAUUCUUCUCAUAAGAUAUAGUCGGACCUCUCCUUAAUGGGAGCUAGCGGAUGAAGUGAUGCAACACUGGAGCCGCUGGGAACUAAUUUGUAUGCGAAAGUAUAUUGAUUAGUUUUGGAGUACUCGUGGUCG; settings: 30 °C;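 also: selection with 25 µg/mL kanamycin versus none on LB agar overnight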
Exercise: for every item that follows, state its recorded self-splicing fitness (ln).
Lab note: jot down the number only; don't add units.

self-splicing fitness (ln) for `AUACAGCAAUAUUACGUGGA` is -3.06

The sequence `CAACAGCAAUAUUACGGUAA` showed self-splicing fitness (ln) equal to -1.71

// self-splicing fitness (ln) lookup, sequence = `AUCUAGCAAUAUUACGUAAG` , result: -2.37

get_value(item= `GAUUAGCAAUAUUACGACUG` , readout=self-splicing fitness (ln)) returns -0.181

// self-splicing fitness (ln) value for `GGCCAGCAAUAUUACGAAUG` : -4.74

Reported self-splicing fitness (ln) ( `CGUCAGCAAUAUUACGGGGA` ) = -2.96

# sequence `UUAAAGCAAUAUUACGAAGC` ; its self-splicing fitness (ln) = -3.34

Looking up `UGUCAGCAAUAUUACGUUUA` , I see its self-splicing fitness (ln) listed as -0.825
